experiment: Stability of the crystalline forms (HPLC, XRD, DSC); format: physicochemical; details: sealed 80° C. 24 hours; open dish 25° C./60% RH and 40° C./75% RH for 7 days
QUANTITY MEASURED: crystalline form and melting point by XRD and DSC

Cc1[nH]c(/C=C2\C(=O)Nc3ccc(F)cc32)c(C)c1C(=O)N[C@H]1CCN(C(=O)N(C)C)C1 [crystalline form 6] :: substantially unchanged
Cc1[nH]c(/C=C2\C(=O)Nc3ccc(F)cc32)c(C)c1C(=O)N[C@H]1CCN(C(=O)N(C)C)C1 [crystalline form 2] :: substantially unchanged
Cc1[nH]c(/C=C2\C(=O)Nc3ccc(F)cc32)c(C)c1C(=O)N[C@H]1CCN(C(=O)N(C)C)C1 [crystalline form 1] :: substantially unchanged
Cc1[nH]c(/C=C2\C(=O)Nc3ccc(F)cc32)c(C)c1C(=O)N[C@H]1CCN(C(=O)N(C)C)C1 [crystalline form 3] :: substantially unchanged
Cc1[nH]c(/C=C2\C(=O)Nc3ccc(F)cc32)c(C)c1C(=O)N[C@H]1CCN(C(=O)N(C)C)C1 [crystalline form 5] :: substantially unchanged

Field: next compound
Could you please provide reported crystalline form and melting point by XRD and DSC for Cc1[nH]c(/C=C2\C(=O)Nc3ccc(F)cc32)c(C)c1C(=O)N[C@H]1CCN(C(=O)N(C)C)C1 [crystalline form 7] ? Thanks!
substantially unchanged
